test system: Leishmania donovani; assay: Antileishmanial activity against intracellular Leishmania donovani; format: functional, organism-based
Measured Property: pIC50
Scale: pIC50 equals -log10([C]), with [C] in mol/L.

INSERT INTO measurements (mol, test_value) VALUES
  ('CC(C)Oc1cc(NC(=N)c2ccccn2)ccc1-c1ccc(NC(=N)c2ccccn2)cc1OC(C)C.Cl.Cl', 7.60),
  ('Cl.Cl.N=C(Nc1ccc(-c2ccc(NC(=N)c3ccccn3)cc2)cc1)c1ccccn1', 7.10);

Check the records and state pIC50 for Cl.Cl.N=C(Nc1ccc(Oc2ccc(NC(=N)c3ccccn3)cc2)cc1)c1ccccn1
7.55
